Each recorded value in this set is attributed to patent US20250042994A1.

Target: T1, Human CD19-his protein (human, UniProt P15391 20-291)
T1 construct: bought protein; also called recombinant human CD19-His; CD19 full-length protein; not shown: His tag
T1 sequence (looked up): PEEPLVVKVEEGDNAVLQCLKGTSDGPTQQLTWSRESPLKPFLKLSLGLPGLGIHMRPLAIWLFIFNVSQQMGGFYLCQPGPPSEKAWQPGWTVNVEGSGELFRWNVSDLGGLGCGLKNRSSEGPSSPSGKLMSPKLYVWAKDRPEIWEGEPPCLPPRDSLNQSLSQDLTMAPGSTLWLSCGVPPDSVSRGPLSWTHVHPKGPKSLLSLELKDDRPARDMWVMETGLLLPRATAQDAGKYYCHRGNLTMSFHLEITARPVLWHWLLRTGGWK
Test: ELISA, coated human CD19-His
reported property: OD450 at 0.10 nM (OD450)
I only need the number, in OD450, no unit after it.

binder	display unit	OD450 at 0.10 nM
F3.121.4-L3H2 (antibody, mouse IgG1, kappa, V domains shown, humanized antibody of F3.121.4, VL3+VH2, murine IgG1 constant regions) VH: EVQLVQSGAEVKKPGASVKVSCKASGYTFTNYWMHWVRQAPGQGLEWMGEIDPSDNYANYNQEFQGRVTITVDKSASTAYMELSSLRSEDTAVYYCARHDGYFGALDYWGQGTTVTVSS VL: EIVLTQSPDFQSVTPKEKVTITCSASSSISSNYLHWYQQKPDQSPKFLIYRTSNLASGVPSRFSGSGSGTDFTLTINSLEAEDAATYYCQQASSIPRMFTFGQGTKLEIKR	OD450	1.6

Query: Give the measured OD450 at 0.10 nM of F3.121.4-L2H1 (antibody, mouse IgG1, kappa, V domains shown, humanized antibody of F3.121.4, VL2+VH1, murine IgG1 constant regions) VH: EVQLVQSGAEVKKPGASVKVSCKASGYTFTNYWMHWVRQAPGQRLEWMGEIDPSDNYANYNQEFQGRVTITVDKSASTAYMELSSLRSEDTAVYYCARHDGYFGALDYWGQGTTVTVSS VL: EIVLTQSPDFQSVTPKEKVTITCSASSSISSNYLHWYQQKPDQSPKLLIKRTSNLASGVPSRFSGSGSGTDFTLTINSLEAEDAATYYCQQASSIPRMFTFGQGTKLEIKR .
Result: 1.52
